Biological target: Serine/threonine-protein kinase D2 (Homo sapiens)
Settings: at 10 µM
Measured parameter: residual activity (%)
Write it as a number; the unit % goes unstated.

Below, each entry is followed by its recorded residual activity result.
| Molecule | Unit text | residual activity |
| --- | --- | --- |
| Nc1nccc(-c2c(-c3ccc(F)cc3)ncn2C2CCNCC2)n1 | % | 49 |
| O=C1NC(=O)c2c1c1c3ccccc3[nH]c1n1cncc21 | % | 42 |
| O=C1C(Cl)=C(N2C(=O)CCC2=O)C(=O)c2ccccc21 | % | 100 |
| CC(C)(C)c1nc2c3ccc(F)cc3c3c(=O)[nH]ccc3c2[nH]1 | % | 22 |
| O=C(NC(NC(=S)Nc1ccc(F)c([N+](=O)[O-])c1)C(Cl)(Cl)Cl)C(c1ccccc1)c1ccccc1 (centres undefined) | % | 100 |
| COc1ccc2c(c1)c(C1=C(c3c[nH]c4ccccc34)C(=O)NC1=O)cn2CCCN(C)C | % | 102 |
| O=c1c(-c2ccc(F)cc2)c(-c2ccncc2)[nH]n1-c1ccc(Cl)cc1 | % | 73 |
| CSc1nc(-c2ccc(F)cc2)c(-c2ccnc(NC(C)c3ccccc3)c2)[nH]1 (centres undefined) | % | 94 |
| O=C1Nc2ccc(Cl)cc2/C1=C/c1cc(Cl)c(O)c(Cl)c1 | % | 56 |
| Cn1sc(=O)n(Cc2ccccc2)c1=O | % | 93 |

Q: Answer with the recorded residual activity for the molecule listed here: O=C(c1ccccc1)c1ccc(N2CCOCC2)cc1O
Ans: 100

Q: Answer with the recorded residual activity for the molecule listed here: Fc1ccc(-c2nc3n(c2-c2ccncc2)CCS3)cc1
Ans: 89

Q: Answer with the recorded residual activity for the molecule listed here: CCN(CC)CCNC(=O)c1c(C)[nH]c(/C=C2\C(=O)Nc3ccc(Cl)cc32)c1C
Ans: 16

Q: Answer with the recorded residual activity for the molecule listed here: NC(=O)c1ccc(-c2nc(-c3ccc4c(c3)OCCO4)c(-c3ccccn3)[nH]2)cc1
Ans: 87

* * *

Biological target: RAF proto-oncogene serine/threonine-protein kinase (Homo sapiens) (UniProt P04049)
Sequence (P04049 whole entry): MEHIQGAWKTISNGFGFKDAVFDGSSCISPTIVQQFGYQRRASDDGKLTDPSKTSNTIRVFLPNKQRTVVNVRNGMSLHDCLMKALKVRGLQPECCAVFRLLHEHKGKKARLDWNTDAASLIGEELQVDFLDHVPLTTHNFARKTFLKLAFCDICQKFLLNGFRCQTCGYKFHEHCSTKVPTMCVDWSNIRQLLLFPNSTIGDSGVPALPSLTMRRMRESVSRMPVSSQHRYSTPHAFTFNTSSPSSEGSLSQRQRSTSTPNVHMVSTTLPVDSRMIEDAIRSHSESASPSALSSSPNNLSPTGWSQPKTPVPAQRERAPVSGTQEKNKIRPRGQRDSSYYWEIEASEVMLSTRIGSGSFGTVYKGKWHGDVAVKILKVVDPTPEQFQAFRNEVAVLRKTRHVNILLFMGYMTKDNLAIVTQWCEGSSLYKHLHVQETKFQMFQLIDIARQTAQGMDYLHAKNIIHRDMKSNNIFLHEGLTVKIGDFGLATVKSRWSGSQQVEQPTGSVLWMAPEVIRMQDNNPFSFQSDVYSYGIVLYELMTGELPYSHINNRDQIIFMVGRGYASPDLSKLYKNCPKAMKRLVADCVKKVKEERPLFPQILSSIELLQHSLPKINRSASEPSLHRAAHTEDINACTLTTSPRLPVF
Conditions: at 10 µM
# residual activity >= 60% gives Y, anything below gives N

Worked set:
| Smiles | Class label |
| --- | --- |
| Oc1cccc(-c2nc(N3CCOCC3)c3oc4ncccc4c3n2)c1 | Y |
| O=C(c1ccccc1)c1ccc(N2CCOCC2)cc1O | Y |
| CCOc1nc(NC(=O)Cc2cc(OC)ccc2OC)cc(N)c1C#N | Y |
| CC(C)(C)n1nc(Cc2cccc3ccccc23)c2c(N)ncnc21 | N |
| NC(=O)c1ccc(-c2nc(-c3ccc4c(c3)OCCO4)c(-c3ccccn3)[nH]2)cc1 | N |

Kindly consider the entry below.
Q: Check this compound for residual activity at or above 60%: Nc1ncnc2[nH]nc(Nc3ccc(F)cc3)c12
Ans: N

* * *

Target: BDNF/NT-3 growth factors receptor (Homo sapiens)
Conditions: at 10 µM
Measured parameter: residual activity (%)
Write it as a number; the unit % goes unstated.

Below, each entry is followed by its recorded residual activity result.
| Smiles | Assayed system | residual activity [%] |
| --- | --- | --- |
| COc1cc2nccc(Oc3ccc(NC(=S)NC(=O)c4ccccc4C)cc3)c2cc1OC | BDNF/NT-3 growth factors receptor (Homo sapiens) | 25 |
| O=C(c1cc2cc(O)ccc2[nH]1)c1cc2cc(O)ccc2[nH]1 | BDNF/NT-3 growth factors receptor (Homo sapiens) | -12 |
| Nc1n[nH]c2nc3ccccc3nc12 | BDNF/NT-3 growth factors receptor (Homo sapiens) | 85 |
| CCCC(=O)Oc1ccc2[nH]c(C(=O)c3cc4ccccc4[nH]3)cc2c1 | BDNF/NT-3 growth factors receptor (Homo sapiens) | 13 |
| O=C1NC(=O)c2c1c1c3ccccc3[nH]c1n1cncc21 | BDNF/NT-3 growth factors receptor (Homo sapiens) | 20 |

// switching to the query compound
Q: Answer with the recorded residual activity for the compound listed here: CC(C)(C)c1nc2c3ccc(F)cc3c3c(=O)[nH]ccc3c2[nH]1
Ans: -2
